- assay system: T1, cynomolgus monkey VTCN1 protein (cynomolgus monkey, UniProt A0A2K5U6P5 25-259)
- T1 construct: The construct and its tag are not described; also called cyno VTCN1
- T1 sequence: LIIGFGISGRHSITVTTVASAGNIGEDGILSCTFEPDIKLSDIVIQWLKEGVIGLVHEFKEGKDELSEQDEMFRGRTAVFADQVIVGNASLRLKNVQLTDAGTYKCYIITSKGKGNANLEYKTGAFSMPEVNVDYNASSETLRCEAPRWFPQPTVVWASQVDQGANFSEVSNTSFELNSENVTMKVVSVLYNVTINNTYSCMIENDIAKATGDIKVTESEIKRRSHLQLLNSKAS
- experiment: BLI (OCTET Red), antibody on Protein A biosensor, cyno VTCN1
Examples of binders with documented pKd follow.
API: returns pKd as number; meaning -log10 of concentration in mol/L.

4C6 (antibody, V domains shown, Recombinant mouse antibody made in CHO cells) VH: QMQLQESGPGLVQPSQSLSITCTVSGFSLTSYGIHWVRQSPGKGLEWLGVIWSSGSTDYNAAFISRLSISKDNSKSQVFFKMNSLQSDDTAIHYCARDITTIAEGFAYWGQGTLVTVSS VL: NIVMTQSPKSMSMSVGERVTLSCKASENVGTYVSWYQQKPEQSPKLLIYGASNRYTGVPDRFTGSGSATDFTLTISSVQAEDLADYHCGQSYSYPFTFGSGTKLEIK; 7.80
3D11 (antibody, V domains shown, Recombinant mouse antibody made in CHO cells) VH: QVQLQQPGAELVKPGASVKLSCKASGYSFTSYWMNWVKQRPGRGLEWIGRIHPSDSETHYNQNFKSKATLTVDKSSSTAYIQLNSLTSEDSAVYYCARPYYFYGSSPYAMDYWGQGASVTVSS VL: DVVMTQTPLSLPVSLGDQASISCRSSQSIVHSNGNTYLEWYLQKPGQSPKLLIYKVSNRFSGVPDRFSGSGSGTDFTFKISRVEAEDLGVYYCFQGSHVPYTFGGGTKLEIK; 8.70

Turning now to a further binder:
input: What does the data say about its pKd? Entry: 7F10 (antibody, V domains shown, Recombinant mouse antibody made in CHO cells) VH: QVQLQQSGPGLVQPSQSLSITCTVSGFSLTSYGIHWVRQSPGKGLEWLGVIWSSGSTDYNAAFISRLSISKDNSKSQVFFKMNSLQSDDTAIHYCARDITTIAEGFAYWGQGTLVTVSA VL: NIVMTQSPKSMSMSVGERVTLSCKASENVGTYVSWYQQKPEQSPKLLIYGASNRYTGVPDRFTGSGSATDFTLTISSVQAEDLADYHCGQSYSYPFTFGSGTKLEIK
output: 7.92
